- EXPERIMENT: Lipophilicity, log P of the compound in octanol/water by RP-HPLC analysis
- Format: physicochemical
Listed molecules paired with reported logP
ASSAY READOUT: logP

query_smiles=OB1ON=C(c2ccccc2)c2ccccc21 measured=2.6
query_smiles=OB1NN=C(c2ccccc2)c2ccccc21 measured=3.72
query_smiles=OB1ON=Cc2ccccc21 measured=1.23
query_smiles=OB1NN=Cc2ccccc21 measured=1.94

---

- EXPERIMENT: Protein binding in human plasma at 1 uM measured after 6 hrs by LC-MS/MS analysis
- Format: ADME, cell-free
- CONDITION SUMMARY: read-out: PPB (converted)
ASSAY READOUT: fraction unbound at 6 h, 1 µM

compound=OB1ON=C(c2ccccc2)c2ccccc21 assay_readout="fraction unbound at 6 h, 1 µM" measured=0.102
compound=OB1ON=Cc2ccccc21 assay_readout="fraction unbound at 6 h, 1 µM" measured=0.71
compound=OB1NN=C(c2ccccc2)c2ccccc21 assay_readout="fraction unbound at 6 h, 1 µM" measured=0.0141
compound="OB1OCc2cc(F)ccc21 [TAVABOROLE]" assay_readout="fraction unbound at 6 h, 1 µM" measured=0.34
compound=OB1NN=Cc2ccccc21 assay_readout="fraction unbound at 6 h, 1 µM" measured=0.082
compound="CCCC(=O)Nc1ccc(OCC(O)CNC(C)C)c(C(C)=O)c1 (stereo unspecified) [ACEBUTOLOL]" assay_readout="fraction unbound at 6 h, 1 µM" measured=0.707

---

- EXPERIMENT: Kinetic solubility of the compound in PBS buffer at pH 7.4 measured after 2 hrs by LC-MS/MS analysis
- Assay type: physicochemical
- CONDITION SUMMARY: read-out: Kinetic_solubility
ASSAY READOUT: solubility kinetic at 2 h (µM)

compound=OB1NN=C(c2ccccc2)c2ccccc21 assay_readout="solubility kinetic at 2 h" measure_unit=µM sign== measured=189
compound=OB1ON=C(c2ccccc2)c2ccccc21 assay_readout="solubility kinetic at 2 h" measure_unit=µM sign=≥ measured=403
compound=OB1ON=Cc2ccccc21 assay_readout="solubility kinetic at 2 h" measure_unit=µM sign=≥ measured=386
compound="CN(C)CCCN1c2ccccc2CCc2ccccc21 [IMIPRAMINE]" assay_readout="solubility kinetic at 2 h" measure_unit=µM sign== measured=457
compound="OB1OCc2cc(F)ccc21 [TAVABOROLE]" assay_readout="solubility kinetic at 2 h" measure_unit=µM sign=> measured=658
compound=OB1NN=Cc2ccccc21 assay_readout="solubility kinetic at 2 h" measure_unit=µM sign=≥ measured=439
compound="COC(=O)C1=C(C)NC(C)=C(C(=O)OCCN(C)Cc2ccccc2)C1c1cccc([N+](=O)[O-])c1 (configuration not stated) [NICARDIPINE]" assay_readout="solubility kinetic at 2 h" measure_unit=µM sign== measured=4.7

---

- EXPERIMENT: Half life in human hepatocytes at 1 uM by LC-MS/MS analysis
- Type: ADME, cell-based, Hepatocyte
ASSAY READOUT: half-life at 1 µM (min)

query_smiles=OB1ON=C(c2ccccc2)c2ccccc21 sign=> measured=360
query_smiles=OB1ON=Cc2ccccc21 sign== measured=47.1
query_smiles=OB1NN=Cc2ccccc21 sign=> measured=360
query_smiles=C[C@]12CC[C@H]3[C@@H](CCC4=CC(=O)CC[C@@]43C)[C@@H]1CC[C@@H]2O sign== measured=25
query_smiles=OB1NN=C(c2ccccc2)c2ccccc21 sign== measured=109

---

- EXPERIMENT: Permeability of the compound across apical to basolateral membrane in human Caco-2 cells at 10 uM measured for 90 mins by LC-MS/MS analysis
- Type: ADME, cell-based
Quick rule: Papp A→B at 1.5 h, 10 µM of at least 30 ×10⁻⁶ cm/s means Met, below that means Not met.

compound=C[C@H]1O[C@@H](O[C@H]2[C@@H](O)C[C@H](O[C@H]3[C@@H](O)C[C@H](O[C@H]4CC[C@@]5(C)[C@H](CC[C@@H]6[C@@H]5C[C@@H](O)[C@]5(C)[C@@H](C7=CC(=O)OC7)CC[C@]65O)C4)O[C@@H]3C)O[C@@H]2C)C[C@H](O)[C@@H]1O label_class="Not met"
compound=OB1ON=C(c2ccccc2)c2ccccc21 label_class=Met
compound=OB1ON=Cc2ccccc21 label_class=Met
compound=OB1NN=C(c2ccccc2)c2ccccc21 label_class="Not met"
compound="CC(C)NCC(O)COc1cccc2ccccc12 (stereo unspecified)" label_class="Not met"

---

Measured pKa accompanies every entry in the list below.
- EXPERIMENT: Dissociation constant, pKa of the compound in 1:1 CH3CN/aqueous phosphate buffer
- Assay type: physicochemical
ASSAY READOUT: pKa

compound=OB1NN=Cc2ccccc21 assay_readout=pKa sign=> measured=14
compound=OB1ON=Cc2ccccc21 assay_readout=pKa sign== measured=7.1
compound=OB1ON=C(c2ccccc2)c2ccccc21 assay_readout=pKa sign== measured=7
compound=OB1NN=C(c2ccccc2)c2ccccc21 assay_readout=pKa sign=> measured=13
compound="OB1OCc2ccccc21 [BENZOXABOROLE]" assay_readout=pKa sign== measured=9.2

---

- Test system: Staphylococcus aureus
- EXPERIMENT: Antibacterial activity against Staphylococcus aureus ATCC 43300 assessed as inhibition of bacterial growth incubated for 18 hrs
- Assay type: functional
The molecules listed here are annotated with their log10 MIC.
ASSAY READOUT: log10 MIC (log10 of the value in µM)

query_smiles=OB1ON=C(c2ccccc2)c2ccccc21 measured=2.11
query_smiles=CN[C@H](CC(C)C)C(=O)N[C@H]1C(=O)N[C@@H](CC(N)=O)C(=O)N[C@H]2C(=O)N[C@H]3C(=O)N[C@H](C(=O)N[C@H](C(=O)O)c4cc(O)cc(O)c4-c4cc3ccc4O)[C@H](O)c3ccc(c(Cl)c3)Oc3cc2cc(c3O[C@@H]2O[C@H](CO)[C@@H](O)[C@H](O)[C@H]2O[C@H]2C[C@](C)(N)[C@H](O)[C@H](C)O2)Oc2ccc(cc2Cl)[C@H]1O measured=0.60
query_smiles=COc1ccc(C2=NOB(O)c3ccccc32)cc1 measured=1.81
query_smiles=OB1ON=C(c2ccccc2)c2cc(F)ccc21 measured=1.81
query_smiles=COc1ccc(C2=NOB(O)c3ccccc32)cc1Br measured=1.20
query_smiles=O=C(Nc1ccc2c(c1)B(O)NN=C2c1ccccc1)c1ccc(F)cc1C(F)(F)F measured=1.81
query_smiles=OB1OCc2cc(F)ccc21 measured=2.11
query_smiles=COc1ccc2c(c1)C(c1ccccc1)=NOB2O measured=0.90

---

Reported values of IC50 for individual entries
- TARGET UNDER TEST: Poly [ADP-ribose] polymerase 2 (Homo sapiens, UniProt Q9UGN5)
- Sequence (Q9UGN5 whole entry, the tested form may be a part): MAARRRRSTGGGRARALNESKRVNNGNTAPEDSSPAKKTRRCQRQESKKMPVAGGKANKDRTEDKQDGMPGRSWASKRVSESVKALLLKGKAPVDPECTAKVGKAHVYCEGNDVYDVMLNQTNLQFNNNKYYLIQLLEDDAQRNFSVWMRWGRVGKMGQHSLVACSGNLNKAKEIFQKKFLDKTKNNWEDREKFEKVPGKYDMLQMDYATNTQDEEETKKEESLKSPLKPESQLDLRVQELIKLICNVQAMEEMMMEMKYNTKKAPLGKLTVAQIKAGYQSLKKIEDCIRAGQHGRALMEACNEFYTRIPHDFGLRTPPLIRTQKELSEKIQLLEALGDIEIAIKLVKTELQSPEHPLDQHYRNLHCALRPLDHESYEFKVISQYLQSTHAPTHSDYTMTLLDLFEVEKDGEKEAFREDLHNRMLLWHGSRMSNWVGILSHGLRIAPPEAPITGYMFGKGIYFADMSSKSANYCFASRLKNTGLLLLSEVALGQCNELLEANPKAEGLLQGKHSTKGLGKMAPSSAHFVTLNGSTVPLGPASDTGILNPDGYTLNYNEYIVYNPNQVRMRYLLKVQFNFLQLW
- EXPERIMENT: Inhibition of N-terminal GST-tagged human PARP2 (2 to 583 residues) expressed in baculovirus-infected Sf9 cells using histone as substrate incubated for 60 mins in presence of activated DNA, NAD+, NAD+-biotin by luminescence based analysis
ASSAY READOUT: IC50 (nM)

query_smiles=O=C(c1cc(CC2=NOB(O)c3ccccc32)ccc1F)N1CCN(C(=O)C2CC2)CC1 assay_readout=IC50 sign=> measured=1000
query_smiles=O=C(c1cc(CC2=NNB(O)c3ccccc32)ccc1F)N1CCN(C(=O)C2CC2)CC1 assay_readout=IC50 sign== measured=120

---

- Tested on: Candida albicans
- EXPERIMENT: Antifungal activity against Candida albicans UAMH 3489 assessed as inhibition of fungal growth incubated for 24 hrs
- Type: functional
Label key: YES means MIC under 8 µM; NO means MIC of 8 µM or more.

query_smiles=OB1ON=C(c2ccccc2)c2cc(F)ccc21 label_class=NO
query_smiles=OB1ON=C(c2ccccc2)c2ccccc21 label_class=NO
query_smiles=OB1ON=Cc2cc(-c3ccc(C(F)(F)F)cc3)ccc21 label_class=YES
query_smiles=OC(Cn1cncn1)(Cn1cncn1)c1ccc(F)cc1F label_class=YES
query_smiles=COc1ccc(C2=NOB(O)c3ccccc32)cc1 label_class=NO
query_smiles=OB1OCc2cc(F)ccc21 label_class=YES
query_smiles=OB1ON=Cc2cc(-c3ccoc3)ccc21 label_class=YES
query_smiles=OB1NN=Cc2cc(F)ccc21 label_class=NO
query_smiles=OB1ON=Cc2cc(-c3ccc(F)cc3)ccc21 label_class=YES
query_smiles=OB1ON=Cc2ccccc21 label_class=NO
query_smiles=OB1NN=C(c2ccccc2)c2cc(F)ccc21 label_class=NO
query_smiles=OB1ON=Cc2cc(-c3ccsc3)ccc21 label_class=YES

---

- EXPERIMENT: Lipophilicity, log D of the compound in Octanol/PBS buffer at pH 7.4 measured after 1 hr by LC-MS/MS analysis
- Format: physicochemical
# maps each entry to its logD at 1 h
ASSAY READOUT: logD at 1 h

query_smiles=OB1NN=Cc2ccccc21 measured=2.03
query_smiles=OB1NN=C(c2ccccc2)c2ccccc21 measured=3.44
query_smiles=CCCSc1ccc2nc(NC(=O)OC)[nH]c2c1 measured=3.57
query_smiles=OB1ON=C(c2ccccc2)c2ccccc21 measured=0.71
